measured_on: GLP-1R (Homo sapiens)
Sequence (P43220 24-463): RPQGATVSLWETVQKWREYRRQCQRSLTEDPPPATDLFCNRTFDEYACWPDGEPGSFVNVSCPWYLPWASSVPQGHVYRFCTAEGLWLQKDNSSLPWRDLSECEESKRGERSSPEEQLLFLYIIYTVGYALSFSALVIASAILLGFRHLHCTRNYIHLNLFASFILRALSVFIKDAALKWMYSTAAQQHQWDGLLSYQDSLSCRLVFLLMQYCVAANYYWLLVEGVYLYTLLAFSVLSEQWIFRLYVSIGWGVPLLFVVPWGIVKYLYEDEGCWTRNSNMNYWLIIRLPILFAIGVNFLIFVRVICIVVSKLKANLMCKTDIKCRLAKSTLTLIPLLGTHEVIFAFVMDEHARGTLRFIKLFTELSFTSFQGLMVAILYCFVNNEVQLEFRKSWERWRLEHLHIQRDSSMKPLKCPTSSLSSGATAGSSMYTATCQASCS
Sequence (P01275 100-127 partner limits assumed): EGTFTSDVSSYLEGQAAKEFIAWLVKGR
method_description: EC20 GLP-1(9-36) PAM cAMP assay: dose response of compound in the presence of fixed concentration of GLP-1(9-36)
assay_setup: GLP-1R CRE-bla CHO-K1 cells, compound dose response in presence of fixed concentration of GLP-1(9-36)
outcome_measure: EC50

IN: Look at this molecule and give its reported EC50. CCCCCCCOc1ccc(-c2cnc(-c3ccc(C[C@H](NC(=O)c4ccc(C(C)C)s4)C(=O)O)cc3)nc2)cc1
OUT: 800 to 2500 nM

IN: Endpoint output: EC50 of CCCCCCCOc1ccc(-c2cnc(-c3ccc(C[C@H](NC(=O)c4ccc(OC(F)(F)F)cc4)C(=O)O)cc3)nc2)cc1 . Value?
OUT: 800 to 2500 nM

IN: If you can, please state the reported EC50 value of CCCCCCCOc1ccc(-c2cnc(-c3ccc(C[C@H](NC(=O)c4ccc(C(C)(C)C)cc4)C(=O)O)cc3)cc2C(F)(F)F)cc1 .
OUT: 800 to 2500 nM

IN: Bench note: what EC50 did CC(C)(C)c1ccc(-c2cnc(-c3ccc(C[C@H](NC(=O)c4ccc(C(C)(C)C)s4)C(=O)N[C@H](CO)C(=O)O)cc3)nc2)cc1 show?
OUT: < 800 nM

IN: Quick check: EC50 of CCCCCCCOc1ccc(-c2cnc(-c3ccc(C[C@H](NC(=O)c4ccc(C(C)C)cc4)C(=O)O)cc3)nc2)cc1 ?
OUT: 800 to 2500 nM

IN: Field request: EC50 | item: CC(C)Cc1ccc(-c2cnc(-c3ccc(C[C@H](NC(=O)c4ccc(C(C)(C)C)s4)C(=O)O)cc3)nc2)cc1
OUT: 800 to 2500 nM
